target system: KCNQ2/3 channels (Homo sapiens, UniProt O43525+O43526)
experimental details: Fluorescence assay using a voltage sensitive dye (fluorimetry)
measurement conditions: CHO-K1 cells expressing KCNQ2/3; voltage-sensitive dye, KCl depolarization; read-out: Fluorimetry EC50/IC50
Protocol: Method I. Fluorescence Assay Using a Voltage Sensitive Dye (Fluorimetry) […] Before being sown out for the measurements, the cells are washed with 1× DPBS buffer Ca^2+/Mg^2+-free (e.g. Invitrogen, #14190-094) and detached from the bottom of the culture vessel by using Accutase (PAA Laboratories, #L11-007) (incubation with Accutase for 15 min at 37° C.). The cell number is determined using a CASY™ cell counter (TCC, Schärfe System). […]
pEC50: −log10 of the molar value.

compound	pEC50
Cc1cc(N2CCOCC2)cc(C(C)C)c1C(=O)NCc1ccc(F)cc1 [Example 17]	6.18
Cc1cc(N2CCOCC2)cc(C(F)(F)F)c1C(=O)NCc1ccc(Cl)cc1 [Example 19]	6.40
Cc1cc(N2CCOCC2)cc(C(C)C)c1C(=O)NCc1ccc(C(F)(F)F)cc1 [Example 22]	6.74
Cc1cc(N2CCOCC2)cc(C2CC2)c1C(=O)NCc1ccc(OC(F)(F)F)cc1 [Example 25]	6.45
COc1cc(N2CCOCC2)cc(C(C)C)c1C(=O)NCc1ccc(Cl)cc1 [Example 40]	6.78
CCc1cc(N2CCOCC2)cc(C)c1C(=O)NCc1ccc(Cl)cc1 [Example 12]	6.43
CCOc1cc(N2CCOCC2)cc(C)c1C(=O)NCc1ccc(Cl)cc1 [Example 11]	5.87
Cc1cc(N2CCOCC2)cc(C2CC2)c1C(=O)NCc1ccc(C(F)(F)F)cc1 [Example 24]	6.16
Cc1cc(N2CCOCC2)cc(C(C)C)c1C(=O)NCc1ccc(Cl)cc1 [Example 14]	6.87

---

Listed below: Emax values for each entry.
target system: KCNQ2/3 channels (Homo sapiens, UniProt O43525+O43526)
Construct: expressed in transfected cells; host or cells: CHO-K1
experimental details: Fluorescence assay using a voltage sensitive dye (fluorimetry)
Type: cell-based
measurement conditions: CHO-K1 cells expressing KCNQ2/3; plateau effect relative to saturated Retigabine (50 μM); read-out: Fluorimetry % efficacy (retigabine = 100%)
reported endpoint: Emax (%)

compound	unit of measure	quantitative readout
CCSc1cc(N2CCOCC2)cc(C)c1C(=O)NCCCC(C)(C)C	%	220
CCSc1cc(N2CCOC[C@H]2C)cc(C)c1C(=O)NCc1ccc(Cl)cc1	%	200
Cc1cc(N2CCOCC2)cc(C2CC2)c1C(=O)NCC(O)CC(C)(C)C (stereo not drawn)	%	159
Cc1cc(N2CCOCC2)cc(C(F)(F)F)c1C(=O)NCc1ccc(Cl)cc1	%	185
Cc1cc(N2CCOCC2)cc(C2CC2)c1C(=O)NCC[C@H](O)C(C)(C)C	%	195
Cc1cc(N2CCOCC2)cc(C2CCOC2)c1C(=O)NCc1ccc(Cl)cc1 (stereo not drawn)	%	166
Cc1cc(N2CCOCC2)cc(C2CC2)c1C(=O)NCc1ccc(C(F)(F)F)cc1	%	134
Cc1cc(N2CCOCC2)cc(C2CC2)c1C(=O)NCc1ccc(Cl)cc1	%	170
CCc1cc(N2CCOCC2)cc(CC)c1C(=O)NCc1ccc(Cl)cc1	%	181
CCSc1cc(N2CCOCC2)cc(C)c1C(=O)NCc1ccc(Cl)cc1	%	152
Cc1cc(N2CCOCC2)cc(C(C)C)c1C(=O)NCc1ccc(OC(F)(F)F)cc1	%	161
Cc1cc(N2CCOCC2)cc(C(C)C)c1C(=O)NCC[C@@H](O)C(C)(C)C	%	212
CC[S+]([O-])c1cc(N2CCOCC2)cc(C)c1C(=O)NCCCC(C)(C)C (stereo not drawn)	%	66
CCCc1cc(N2CCOCC2)cc(C)c1C(=O)NCc1ccc(Cl)cc1	%	183
Cc1cc(N2CCOCC2)cc(C(C)C)c1C(=O)NCc1ccc(C(F)(F)F)cn1	%	134
COc1cc(N2CCOCC2)cc(C(C)C)c1C(=O)NCc1ccc(Cl)cc1	%	196
Cc1cc(N2CCOCC2)cc(C(C)C)c1C(=O)NCC[C@H](O)C(C)(C)C	%	230
Cc1cc(N2CCOCC2)cc(C(C)C)c1C(=O)NCc1ccc(Cl)cn1	%	156
